- ASSAYED_SYSTEM: wild-type nAChR α7 receptors (Homo sapiens)
- Construct: expressed in transfected cells; host or cells: Xenopus laevis oocytes
- Sequence (P36544 23-502): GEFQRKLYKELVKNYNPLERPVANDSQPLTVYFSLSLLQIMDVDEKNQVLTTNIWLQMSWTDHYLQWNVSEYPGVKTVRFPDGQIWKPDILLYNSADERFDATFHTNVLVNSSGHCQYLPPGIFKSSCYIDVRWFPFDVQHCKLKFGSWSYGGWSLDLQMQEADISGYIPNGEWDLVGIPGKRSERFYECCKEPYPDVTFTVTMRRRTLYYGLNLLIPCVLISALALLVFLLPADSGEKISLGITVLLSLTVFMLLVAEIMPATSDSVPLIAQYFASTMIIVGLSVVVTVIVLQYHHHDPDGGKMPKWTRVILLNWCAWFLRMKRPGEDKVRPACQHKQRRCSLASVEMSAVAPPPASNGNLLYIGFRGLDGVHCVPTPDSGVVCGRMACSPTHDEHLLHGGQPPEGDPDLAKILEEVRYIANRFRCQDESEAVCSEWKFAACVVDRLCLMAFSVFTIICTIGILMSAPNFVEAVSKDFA
- METHOD: Positive modulation of nAChR α7 receptors expressed in Xenopus laevis oocytes, two-electrode voltage clamp
- Format: cell-based
- SETTINGS: maximal modulation of the control response to 100 μM acetylcholine, (test-control)/control×100%; oocytes clamped at −60 mV; read-out: Imax
MEASUREMENT_TYPE: Emax (%)

Consider the following illustrative entries.
STRUCTURE_STRING | UNITS | Emax
Cc1nc(Nc2ccc3c(c2)OCCO3)c(N)c(-c2ccc(C(F)(F)F)cc2F)n1 | % | 297
Nc1c(Oc2ccc(O)cc2)ncnc1-c1ccc(C(F)(F)F)cc1F | % | 104

[I] COc1ccc(Oc2ncnc(-c3ccc(C(F)(F)F)cc3F)c2N)cc1
[II] Nc1c(Nc2ccc(S(N)(=O)=O)cc2)ncnc1-c1ccc(C(F)(F)F)cc1F
[III] Cc1nc(Oc2ccc3c(c2)OCO3)c(N)c(-c2ccc(C(F)(F)F)cc2F)n1
Problem: Order field: Emax | Direction: descending (largest first) Sort the labels as requested; that list is your answer.
Solution: II, I, III
(II: 237%, I: 119%, III: 35%)

[1] Cc1nc(Nc2ccc3ccccc3c2)c(N)c(-c2ccc(C(F)(F)F)cc2F)n1
[2] Cc1ccc(Nc2nc(C)nc(-c3ccc(C(F)(F)F)cc3F)c2N)cc1
Problem: Thinking about recorded Emax values, which is higher, 1 or 2 ? Kindly give the label for the entry you pick.
Solution: 2
(2: 503%, 1: 148%)

// data source = patent US20110230485A1
